Test system: LOC_OS05G30820-cb001;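 further: purified Escherichia coli-expressed rice kinase domain construct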
method.notes: thermal shift delta Tm vs DMSO control; higher = stronger stabilization (binding)
cond: 12.5 µM; protein concentration 2 µM
Classify as follows. Reported thermal shift delta Tm greater than or equal to 0.5 °C: t. Reported thermal shift delta Tm below: f.

{"molecule": "CCN(CC)CCNC(=O)c1c(C)[nH]c(/C=C2\\C(=O)Nc3ccc(F)cc32)c1C [Sunitinib Malate]", "target.entity": "LOC_OS05G30820-cb001", "qualitative.label": "t"}
{"molecule": "CN(C)C/C=C/C(=O)Nc1cc2c(Nc3ccc(F)c(Cl)c3)ncnc2cc1O[C@H]1CCOC1 [Afatinib (BIBW2992)]", "target.entity": "LOC_OS05G30820-cb001", "qualitative.label": "f"}
{"molecule": "Cn1cc(-c2cnn3c(N)c(Br)c([C@@H]4CCCNC4)nc23)cn1", "target.entity": "LOC_OS05G30820-cb001", "qualitative.label": "f"}
{"molecule": "CNC(=O)c1cc(Oc2ccc(NC(=O)Nc3ccc(Cl)c(C(F)(F)F)c3)c(F)c2)ccn1 [Regorafenib (BAY 73-4506)]", "target.entity": "LOC_OS05G30820-cb001", "qualitative.label": "f"}
{"molecule": "COc1cc(N2CCN(C)CC2)ccc1Nc1nccc(-c2cn(C)c3cnccc23)n1", "target.entity": "LOC_OS05G30820-cb001", "qualitative.label": "f"}
{"molecule": "CCS(=O)(=O)N1CCN(c2ccc(Nc3ncc(C(N)=O)c(NC4CC4)n3)cc2)CC1", "target.entity": "LOC_OS05G30820-cb001", "qualitative.label": "t"}

Below: the item to evaluate.
# check: thermal shift delta Tm of COc1cc(Nc2ncc3c(n2)-c2ccc(Cl)cc2C(c2c(F)cccc2OC)=NC3)ccc1C(=O)O [Alisertib (MLN8237)] is greater than or equal to 0.5 °C
f
